Hey, just so you know, these numbers are from paper PMC9607537.

- assay summary: in vivo
- measurement setup: female, Balb/c, mouse, in vivo, po
readout name: LD50 at 14 days (mg/kg)
Give just the number in mg/kg; leave the unit off.

> print(dat)
                                   molecule     readout.name  numeric.result
1  CN(Cc1cnc2nc(N)nc(N)c2n1)c1ccc(C(=O)N[C@@H](CCC(=O)O)C(=O)O)cc1 [MTX, methotrexate, reference compound]  LD50 at 14 days             335

Please look at the following molecule next.
Query: Give the measured LD50 at 14 days of `CC(C)=CCC/C(C)=C/CC/C(C)=C/CC/C(C)=C/CO` .
Result: 742
